Attribution: patent US12630600B2

Please go through the items and note down their hGluc-R EC50 (pM).
target: human glucagon receptor (human, UniProt P47871); experiment: cell-based or functional assay
Starred links: 1 amine or outer side, 2 acyl side, 3 side chain; linkers in the order of their positions; H or OH if unused. Non-standard residues stand in square brackets, D forms with d. Groups on a side chain read outwards from the residue. No end group written: not given here. *: point of attachment. C20 diacid = O=C(O)CCCCCCCCCCCCCCCCCCC(=O)*; C18 diacid = O=C(O)CCCCCCCCCCCCCCCCC(=O)*; γGlu = O=C(O)[C@H](CCC(=O)[*:2])N[*:1]; αMeF = C[C@](N)(Cc1ccccc1)C(=O)O; AEEA = NCCOCCOCC(=O)O; Aib = CC(C)(N)C(=O)O
Numbers only, in pM.

Examples with their reported hGluc-R EC50 (pM) follow.
* H[Aib]HGS[αMeF]TSDVSK[Aib]LDSRAAK([AEEA-AEEA-γGlu-C18 diacid])D[αMeF]VQ[Aib]IANT-NH2 [Peptide 296] | 3250
* H[Aib]HGS[αMeF]TSDVSK[αMeF]LDSRAAK([γGlu-γGlu-C18 diacid])D[αMeF]VQ[Aib]IANT-NH2 [Peptide 270] | 31.3
* H[Aib]HGS[αMeF]TSDVSK[αMeF]LDSRAAK([AEEA-AEEA-γGlu-γGlu-C20 diacid])D[αMeF]IA[Aib]IAET-NH2 [Peptide 302] | 271
* H[Aib]HGS[αMeF]TSDVSK[αMeF]LDSRAAK([AEEA-γGlu-γGlu-C20 diacid])D[αMeF]VQ[Aib]IANT-NH2 [Peptide 279] | 150

Let's switch to this binder now.
Return hGluc-R EC50 (pM) for the following binder: H[Aib]QGT[αMeF]TSDVSK[αMeF]LDSRAAK([AEEA-AEEA-γGlu-C18 diacid])D[αMeF]VQ[Aib]IANT-NH2 (not fully specified) [Peptide 321] 4400
